Measured kcat/Km, listed per entry for reference.
test system: Escherichia coli; test: Ratio of kcat to Km for purified Escherichia coli pantothenate kinase by spectrophotometry

Ask | Complete the entry with kcat/Km for CCCCCn1cc(CNC(=O)[C@H](O)C(C)(C)CO)nn1
Reply | 5100 M⁻¹ s⁻¹

Ask | Complete the entry with kcat/Km for CCCCCNC(=O)CCNC(=O)[C@H](O)[C@](C)(CC)CO
Reply | 5100 M⁻¹ s⁻¹

Ask | Complete the entry with kcat/Km for CC(C)(CO)[C@@H](O)C(=O)NCCC(=O)N1Cc2ccccc2C1
Reply | 1900 M⁻¹ s⁻¹

###

test system: Escherichia coli; test: Activity of purified Escherichia coli pantothenate kinase by spectrophotometry
Measurement Type: Km

CC(C)(CO)[C@@H](O)C(=O)NCCC(=O)NCCCn1ccnc1
22 µM
CC(C)(CO)[C@@H](O)C(=O)NCCC(=O)NCCN1CCNCC1
> 1000 µM

--- query ---
Ask | State, for Escherichia coli, measured Km of the compound listed here: CC(C)(CO)[C@@H](O)C(=O)NCCC(=O)NCC1CCNCC1
Reply | > 1000 µM

###

system: Escherichia coli; assay: Ratio of kcat to Km for purified Escherichia coli pantothenate kinase by spectrophotometry
Measured kcat/Km, listed per entry for reference.
Use mM⁻¹ s⁻¹ as the unit, but write only the number.

Ask | Complete the entry with kcat/Km for CC(C)(CO)[C@@H](O)C(=O)NCCC(=O)NCCCN1CCOCC1
Reply | 2.9

Ask | Complete the entry with kcat/Km for Cc1cccnc1NC(=O)CCNC(=O)[C@H](O)C(C)(C)CO
Reply | 20

###

tested on: Escherichia coli; test: Ratio of kcat to Km for purified Escherichia coli pantothenate kinase by spectrophotometry
Measurement Type: kcat/Km (M⁻¹ s⁻¹)
Use M⁻¹ s⁻¹ as the unit, but write only the number.

Ask | Complete the entry with kcat/Km for CCCCCNC(=O)CCNC(=O)[C@H](O)C(C)(C)CO
Reply | 26000

Ask | Complete the entry with kcat/Km for CC(C)(CO)[C@@H](O)C(=O)NCCC(=O)Nc1ccncn1
Reply | 3200

Ask | Complete the entry with kcat/Km for CCCCCNC(CNC(=O)[C@H](O)C(C)(C)CO)C(=O)O (some centres undefined)
Reply | 300

Ask | Complete the entry with kcat/Km for C#CC[C@](C)(CO)[C@@H](O)C(=O)NCCC(=O)NCCCCC
Reply | 9000
